Items are presented alongside their recorded Kd.
Biological target: P1156:G4S:P1243 two-warhead evasin (Ixodes ricinus | Amblyomma americanum, UniProt V5HBW0;A0A0C9S461)
Test: BLI
State just the number; it will be interpreted in nM.

Consider the worked cases shown below.
Would you kindly share the measured Kd for CCL5 (ligand) SPYSSDTTPCCFAYIARPLPRAHIKEYFYTSGKCSNPAVVFVTRKNRQVCANPEKKWVREYINSLEMS ?
2.6

Would you kindly share the measured Kd for CCL15 (protein) QFTNDAETELMMSKLPLENPVVLNSFHFAADCCTSYISQSIPCSLMKSYFETSSECSKPGVIFLTKKGRQVCAKPSGPGVQDCMKKLKPYSI ?
12

Would you kindly share the measured Kd for CCL23 (ligand) RVTKDAETEFMMSKLPLENPVLLDRFHATSADCCISYTPRSIPCSLLESYFETNSECSKPGVIFLTKKGRRFCANPSDKQVQVCMRMLKLDTRIKTRKN ?
0.098

Would you kindly share the measured Kd for CCL18 (protein) AQVGTNKELCCLVYTSWQIPQKFIVDYSETSPQCPKPGVILLTKRGRQICADPNKKWVQKYISDLKLNA ?
0.001

---
Would you kindly share the measured Kd for CCL16 (protein) QPKVPEWVNTPSTCCLKYYEKVLPRRLVVGYRKALNCHLPAIIFVTKRNREVCTNPNDDWVQEYIKDPNLPLLPTRNLSTVKIITAKNGQPQLLNSQ ?
0.65
